- Subject Of Test: human orexin 2 receptor (hOx2R) (Homo sapiens, UniProt O43614)
- Construct: expressed in transfected cells
- Sequence (O43614 whole entry): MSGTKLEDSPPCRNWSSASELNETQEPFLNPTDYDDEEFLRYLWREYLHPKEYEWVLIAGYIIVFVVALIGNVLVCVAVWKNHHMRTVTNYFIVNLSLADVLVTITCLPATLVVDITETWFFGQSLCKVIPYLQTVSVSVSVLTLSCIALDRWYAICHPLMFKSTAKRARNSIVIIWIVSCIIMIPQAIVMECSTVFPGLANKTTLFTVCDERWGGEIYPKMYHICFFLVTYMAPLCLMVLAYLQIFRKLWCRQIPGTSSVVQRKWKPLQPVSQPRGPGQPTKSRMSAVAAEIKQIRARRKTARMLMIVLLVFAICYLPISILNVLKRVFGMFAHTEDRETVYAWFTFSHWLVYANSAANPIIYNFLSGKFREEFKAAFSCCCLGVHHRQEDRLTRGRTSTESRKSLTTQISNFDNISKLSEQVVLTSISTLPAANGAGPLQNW
- Assay Name: Calcium accumulation in cells (FLIPR), antagonism of orexin A, hOx2R
- Type: cell-based
- Conditions: cells expressing human orexin 2 receptor; IC50 vs orexin A converted by Cheng and Prusoff correction
- Method: Cells expressing human orexin 1 or human orexin 2 receptors, were seeded at 8,000 cells/well in 384 well black-walled clear bottom, poly-D-lysine coated plates. […] On the day of the experiment, the cells seeded in black plates were treated with assay buffer containing the Ca^2+ sensitive fluorescent dye Fluo-4-AM (2 μM), and probenecid (0.1 mM). […] Fluorescence measurements were then continued every 1 S for 120 S followed by every 4 S for 240 S. […]
Property: Kd

*Q* Any idea what its Kd is? The compound is CN(C(=O)c1ccc2[nH]ccc2c1)[C@H](CCNC(=O)c1ccccn1)Cc1ccccc1 [Example 7]
*A* 0.04 µM

*Q* What do you have for CN(C(=O)c1cccc2cc[nH]c12)[C@H](CCNC(=O)c1ccccn1)Cc1ccccc1 [Example 38] ?
*A* 0.162 µM

*Q* Would you mind doing CN(C(=O)c1ccc2cc[nH]c2c1)[C@H](CCNC(=O)c1ccccn1)Cc1ccccc1 [Example 64] as well?
*A* 1.07 µM

*Q* Would you mind doing CN(C(=O)c1ccccc1)[C@H](CCNC(=O)c1cccc2c1OCO2)Cc1ccccc1 [Example 32] as well?
*A* 0.067 µM
